# ED50 listing for each entry below
Target: PDE2A (Rattus norvegicus, UniProt Q01062)
Construct: Twenty μm-thick striatal sections were cut; from tissue; host or cells: rat brain, striatal sections
Sequence (Q01062 1-928): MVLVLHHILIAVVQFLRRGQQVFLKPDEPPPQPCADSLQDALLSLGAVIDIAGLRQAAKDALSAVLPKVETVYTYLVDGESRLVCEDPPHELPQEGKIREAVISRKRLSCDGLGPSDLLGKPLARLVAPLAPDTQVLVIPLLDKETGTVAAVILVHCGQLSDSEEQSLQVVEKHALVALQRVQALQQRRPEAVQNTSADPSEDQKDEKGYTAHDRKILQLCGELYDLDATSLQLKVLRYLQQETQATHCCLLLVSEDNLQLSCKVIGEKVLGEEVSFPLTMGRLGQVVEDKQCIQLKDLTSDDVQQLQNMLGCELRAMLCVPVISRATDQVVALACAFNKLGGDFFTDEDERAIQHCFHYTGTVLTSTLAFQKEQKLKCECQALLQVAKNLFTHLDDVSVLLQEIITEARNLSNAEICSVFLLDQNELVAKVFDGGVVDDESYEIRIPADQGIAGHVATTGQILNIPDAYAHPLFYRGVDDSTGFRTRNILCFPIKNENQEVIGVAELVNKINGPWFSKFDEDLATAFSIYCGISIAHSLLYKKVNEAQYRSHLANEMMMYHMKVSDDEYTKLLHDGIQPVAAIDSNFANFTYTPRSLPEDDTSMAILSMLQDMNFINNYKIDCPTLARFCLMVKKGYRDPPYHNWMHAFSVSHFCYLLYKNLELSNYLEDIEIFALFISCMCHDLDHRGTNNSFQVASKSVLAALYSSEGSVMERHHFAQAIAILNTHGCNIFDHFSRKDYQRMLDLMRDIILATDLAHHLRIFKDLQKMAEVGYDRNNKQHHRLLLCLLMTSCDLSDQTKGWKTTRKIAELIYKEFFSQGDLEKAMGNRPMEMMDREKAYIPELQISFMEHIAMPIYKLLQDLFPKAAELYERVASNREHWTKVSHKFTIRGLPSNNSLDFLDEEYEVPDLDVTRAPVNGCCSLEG
Assay: PDE2 occupancy by test compounds, ex-vivo autoradiography with [3H]B-17a
Type: in vivo, Male Wistar rats
Settings: route PO (oral), drug dose producing 50% receptor occupancy, read-out: PDE Occupancy ED50
The answer is to be given in mg/kg; state only the numeric part.

In the examples that follow, each entry is paired with its recorded ED50.
INSERT INTO measurements (smi, measure_name, assay_value) VALUES
  ('C[C@@H]1CCN(C(=O)c2cc(C3CC3)ncc2F)C[C@H]1c1cc(C(F)F)nc2ncnn12', 'ED50', 24.2),
  ('Cc1cc(C(=O)N2CC[C@@H](C)[C@H](c3cc(C(F)F)nc4ncnn34)C2)cc(OC(F)F)n1', 'ED50', 4.2);

From here, focus on the item given below.
# ED50 (molecule: COc1cc(C(=O)N2CC[C@@H](C)[C@H](c3cc(C(F)F)nc4ncnn34)C2)c(F)cn1 ) is 45.2

---

Target: Human recombinant PDE2A (hPDE2A) (Homo sapiens)
Construct: His tag (inferred from metal chelate purification); made in house; host or cells: Sf9 insect cells (baculovirus)
Sequence (O00408 whole entry): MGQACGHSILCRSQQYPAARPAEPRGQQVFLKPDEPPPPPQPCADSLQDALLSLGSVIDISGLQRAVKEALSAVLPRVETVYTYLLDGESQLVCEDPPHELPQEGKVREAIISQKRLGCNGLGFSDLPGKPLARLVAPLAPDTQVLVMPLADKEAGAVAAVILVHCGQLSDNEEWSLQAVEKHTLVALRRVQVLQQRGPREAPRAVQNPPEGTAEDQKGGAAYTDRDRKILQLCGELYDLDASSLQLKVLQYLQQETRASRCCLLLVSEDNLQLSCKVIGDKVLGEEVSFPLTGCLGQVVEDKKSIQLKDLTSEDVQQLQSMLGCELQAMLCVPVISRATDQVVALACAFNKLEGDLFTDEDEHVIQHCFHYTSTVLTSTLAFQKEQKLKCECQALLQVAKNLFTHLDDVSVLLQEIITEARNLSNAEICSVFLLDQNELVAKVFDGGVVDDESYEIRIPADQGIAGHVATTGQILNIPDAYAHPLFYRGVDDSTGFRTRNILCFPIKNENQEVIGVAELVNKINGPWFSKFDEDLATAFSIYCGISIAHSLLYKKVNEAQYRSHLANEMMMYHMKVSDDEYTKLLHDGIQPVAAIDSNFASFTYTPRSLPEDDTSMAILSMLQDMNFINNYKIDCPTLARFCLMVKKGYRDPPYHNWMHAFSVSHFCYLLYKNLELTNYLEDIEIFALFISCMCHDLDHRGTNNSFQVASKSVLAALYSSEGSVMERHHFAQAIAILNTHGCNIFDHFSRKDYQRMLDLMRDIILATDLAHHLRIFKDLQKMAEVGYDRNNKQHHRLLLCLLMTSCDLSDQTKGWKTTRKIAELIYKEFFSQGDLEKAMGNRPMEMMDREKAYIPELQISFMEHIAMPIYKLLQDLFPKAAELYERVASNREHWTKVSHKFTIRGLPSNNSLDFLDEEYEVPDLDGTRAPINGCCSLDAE
Test: In vitro assay PDE2A (SPA, 3H-cGMP hydrolysis)
Assay type: biochemical
Details: hPDE2A pIC50, human recombinant PDE2A, 10 μM cGMP substrate
measure_name: IC50 (nM)
The answer is to be given in nM; state only the numeric part.

INSERT INTO results (compound, measure_name, assay_value) VALUES
  ('Cc1cc([C@@H]2CN(C(=O)c3ccnc(Cl)c3)CC[C@H]2C)n2ncnc2n1 [Compound 15]', 'IC50', 3.24),
  ('C[C@@H]1CCN(C(=O)c2cc(F)cc(C#N)c2)C[C@H]1c1cc(C(F)F)nc2ncnn12 [Compound 190]', 'IC50', 10.2),
  ('Cc1cc(C(=O)N2CC[C@@H](C)[C@H](c3cc(C(F)F)nc4ncnn34)C2)cc(C)c1Cl [Compound 76]', 'IC50', 0.229);

From here, focus on the item given below.
# IC50 (compound: Cc1cc(C)cc(C(=O)N2CC[C@H](C)[C@@H](c3cc(C(F)F)nc4ncnn34)C2)c1 [Compound 214] ) is 6310

---

Target: Human recombinant PDE2A (hPDE2A) (Homo sapiens)
Construct: His tag (inferred from metal chelate purification); made in house; host or cells: Sf9 insect cells (baculovirus)
Experiment: In vitro assay PDE2A (SPA, 3H-cGMP hydrolysis)
Format: biochemical
Conditions: read-out: hPDE2A pIC50 (converted)
measure_name: IC50 (nM)
The answer is to be given in nM; state only the numeric part.

INSERT INTO results (compound, measure_name, assay_value) VALUES
  ('Cc1cc(C)cc(C(=O)N2[C@H]3CC[C@H](c4cc(C(F)F)nc5ncnn45)[C@@H]2CC3)c1 [Compound 302]', 'IC50', 6.46);

# IC50 (compound: O=C(c1cn2ccsc2n1)N1[C@H]2CC[C@H](c3cc(C(F)F)nc4ncnn34)[C@@H]1CC2 [Compound 360] ) is 40.7

# IC50 (compound: Cc1nc(C(=O)N2CC[C@@H](C)[C@H](c3cc(C(F)F)nc4ncnn34)C2)c(C)o1 [Compound 252] ) is 708

---

Biological target: Human recombinant PDE3A (hPDE3A) (Homo sapiens, UniProt Q14432)
Construct: purchased Scottish Biomedical; host or cells: Sf9 insect cells
Sequence (Q14432 whole entry): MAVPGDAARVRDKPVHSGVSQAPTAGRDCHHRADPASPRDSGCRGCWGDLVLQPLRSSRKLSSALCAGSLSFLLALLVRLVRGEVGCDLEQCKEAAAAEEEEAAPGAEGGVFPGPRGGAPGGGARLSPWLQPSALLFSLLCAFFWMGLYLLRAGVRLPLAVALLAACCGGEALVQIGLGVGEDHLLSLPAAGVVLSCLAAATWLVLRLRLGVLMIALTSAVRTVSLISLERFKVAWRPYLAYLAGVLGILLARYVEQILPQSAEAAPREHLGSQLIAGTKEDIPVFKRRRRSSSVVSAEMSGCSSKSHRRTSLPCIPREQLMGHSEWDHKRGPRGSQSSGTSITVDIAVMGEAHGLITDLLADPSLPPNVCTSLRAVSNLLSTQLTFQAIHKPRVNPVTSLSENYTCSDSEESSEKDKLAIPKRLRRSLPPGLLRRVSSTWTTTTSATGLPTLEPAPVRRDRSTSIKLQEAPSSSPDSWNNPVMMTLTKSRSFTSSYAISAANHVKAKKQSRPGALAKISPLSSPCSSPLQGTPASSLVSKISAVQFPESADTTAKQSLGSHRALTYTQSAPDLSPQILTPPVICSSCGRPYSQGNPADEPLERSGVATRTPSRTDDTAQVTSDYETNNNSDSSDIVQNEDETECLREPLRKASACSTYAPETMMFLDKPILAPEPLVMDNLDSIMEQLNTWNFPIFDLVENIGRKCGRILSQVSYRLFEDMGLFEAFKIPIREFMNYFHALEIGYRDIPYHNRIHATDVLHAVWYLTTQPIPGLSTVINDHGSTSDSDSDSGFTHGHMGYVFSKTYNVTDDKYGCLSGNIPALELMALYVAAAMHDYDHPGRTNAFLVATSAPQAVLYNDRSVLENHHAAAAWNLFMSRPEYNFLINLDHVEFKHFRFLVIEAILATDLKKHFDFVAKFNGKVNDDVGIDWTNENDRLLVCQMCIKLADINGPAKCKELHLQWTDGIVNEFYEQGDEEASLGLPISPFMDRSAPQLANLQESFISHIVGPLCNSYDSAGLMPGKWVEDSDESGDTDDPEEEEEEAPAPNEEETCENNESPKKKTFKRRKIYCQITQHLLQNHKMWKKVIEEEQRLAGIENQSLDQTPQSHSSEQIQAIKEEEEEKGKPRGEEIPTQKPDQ
Assay: In vitro assay PDE3A (SPA, 3H-cAMP hydrolysis);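 for Emax: the method names PDE3A and the table heading PDE3B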
Type: biochemical
Details: read-out: hPDE3B Emax; read-out: Emax
Experimental: Human recombinant PDE3A (hPDE3A) was supplied as a partially purified insect cell lysate by Scottish Biomedical, it was cloned from human brain and expressed in Sf9 cells. Tested compounds were dissolved and diluted in 100% DMSO to a concentration 100 fold of the final concentration in the assay. […] After sedimentation of the beads during 30 min the radioactivity was measured in a Perkin Elmer Topcount scintillation counter and results were expressed as cpm. […]
# Emax listing for each entry below
The answer is to be given in %; state only the numeric part.

In the examples that follow, each entry is paired with its recorded Emax.
INSERT INTO assay_data (smi, assay_value) VALUES
  ('O=C(c1ccc2nccnc2c1)N1[C@H]2CC[C@H](c3cc(C(F)F)nc4ncnn34)[C@@H]1CC2', 48),
  ('C[C@@H]1CCN(C(=O)c2ccc3scnc3c2)C[C@H]1c1cc(C(F)F)nc2ncnn12', 95),
  ('Cc1cc(C(=O)N2[C@H]3CC[C@H](c4cc(C(F)F)nc5ncnn45)[C@@H]2CC3)c(C)s1', 40);

From here, focus on the item given below.
# Emax (molecule: C[C@@H]1CCN(C(=O)c2cc(C(C)(C)C)on2)C[C@H]1c1cc(C(F)F)nc2ncnn12 ) is 89

---

Target: Human recombinant PDE3A (hPDE3A) (Homo sapiens, UniProt Q14432)
Construct: purchased Scottish Biomedical; host or cells: Sf9 insect cells
Experiment: In vitro assay PDE3A (SPA, 3H-cAMP hydrolysis)
Assay type: biochemical
Conditions: hPDE3B pIC50
measure_name: pIC50
Please treat pIC50 as minus the base-10 logarithm of the molar concentration.

In the examples that follow, each entry is paired with its recorded pIC50.
INSERT INTO measurements (smi, assay_value) VALUES
  ('Cc1nc2cc(C(=O)N3[C@H]4CC[C@H](c5cc(C(F)F)nc6ncnn56)[C@@H]3CC4)ccc2o1', 5.35),
  ('Cc1cc2ccc(C(=O)N3[C@H]4CC[C@H](c5cc(C(F)F)nc6ncnn56)[C@@H]3CC4)cn2c1', 5.83),
  ('O=C(c1ccc2ccccc2n1)N1[C@H]2CC[C@H](c3cc(C(F)F)nc4ncnn34)[C@@H]1CC2', 5.34);

From here, focus on the item given below.
# pIC50 (compound: Cc1csc(C(=O)N2[C@H]3CC[C@H](c4cc(C(F)F)nc5ncnn45)[C@@H]2CC3)c1 ) is 5.14

---

Target: Human recombinant PDE3A (hPDE3A) (Homo sapiens)
Construct: purchased Scottish Biomedical; host or cells: Sf9 insect cells
Experiment: In vitro assay PDE3A (SPA, 3H-cAMP hydrolysis)
Assay type: biochemical
Settings: hPDE3B pIC50; read-out: pIC50 (converted)
# IC50 listing for each entry below
The answer is to be given in µM; state only the numeric part.

In the examples that follow, each entry is paired with its recorded IC50.
INSERT INTO measurements (compound, assay_value) VALUES
  ('O=C(c1ccc(C(F)(F)F)c(F)c1)N1[C@H]2CC[C@H](c3cc(C(F)F)nc4ncnn34)[C@@H]1CC2 [Compound 338]', 5.5),
  ('COc1cc(C(=O)N2CC[C@@H](C)[C@H](c3cc(C)nc4ncnn34)C2)c(F)cn1 [Compound 225]', 1.78);

# IC50 (compound: COc1cc(C(=O)N2CC[C@@H](C)[C@H](c3cc(C)nc4ncnn34)C2)c(C(F)(F)F)cn1 [Compound 37] ) is 8.91

Origin of the recorded values: patent US10947242B2
